Test: Identifying Small Molecule Inhibitors of Pancreatic Cancer Stem Cells (A2780, Spheroid) (AID 1259357);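 further: spheroids pre-formed over 14 days in stem cell medium on hydrogel; compound exposure lasted 48 h before the ATP luminescence read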
Settings: A2780 spheroid viability; series mostly up to 46.1 µM
Results filed as inconclusive are left out. Calls of active or inactive are those of the source. The call rests on the fitted dose curve; in most records, active means well fitted cell-killing curve with a large enough effect; inconclusive means small, poorly fitted or top-dose-only effect, or effect the other way, or another doubt; inactive means no such curve, though single readings can be large or run the other way.
Response enum: 1 = active, -1 = inactive

Recorded results for 4 compounds are shown here.
1) NC(=O)Nc1cc(-c2ccc(CN3CCOCC3)c(F)c2)sc1C(=O)N[C@H]1CCCNC1 :: 1
2) CC[C@@H](C(=O)O)C1CC[C@H](C)C([C@@H](C)[C@H](O)[C@H](C)C(=O)[C@H](CC)C2O[C@]3(C=C[C@@H](O)[C@]4(CC[C@@](C)(C5CC[C@](O)(CC)[C@H](C)O5)O4)O3)[C@H](C)C[C@@H]2C)O1 (some centres not stated) :: 1
3) CNC1CCN(C(Cc2cccc(-c3ccncc3)c2)C(=O)c2sc3c(F)ccc(F)c3c2Cl)CC1 (configuration not stated) :: -1
4) C[C@@H]1CCN(C(=O)CC#N)C[C@@H]1N(C)c1ncnc2[nH]ccc12 :: -1

Query: Which outcome did this test record for the compound COC(=O)C1=C(C)NC(C)=C(C(=O)OCCCN2CCC(c3ccccc3)(c3ccccc3)CC2)[C@H]1c1cccc([N+](=O)[O-])c1 ?
Result: -1

Query: Dear all, I need the recorded test outcome for CCC1(Cc2ccc(N)cc2)CCC(=O)NC1=O (configuration not stated) , thank you.
Result: -1

Query: Record request — test call for CCCCCCCCCCCCCCCCCCOP(=O)([O-])OC1CC[N+](C)(C)CC1
Result: -1

----------
Tested on: CP266
Assay: qHTS profiling for inhibitors of Plasmodium falciparum proliferation (AID 504749); further: nearly all actives have a fitted effect of over 60% in size; further: potency means the concentration at half of the fitted maximal effect
Settings: P. falciparum in erythrocytes, SYBR Green DNA, 72 h; series mostly up to 28.7 µM
Inconclusive results are not listed. Activity calls are given as the source filed them. Calls follow the shape of the dose curve; as a rule, active = well fitted inhibition curve with a large enough effect; inconclusive = small, poorly fitted or top-dose-only effect; inactive = flat fitted curve, though single readings scatter.
OBSERVATION TYPE: Potency

1) NC(=O)c1ncn(C2OC(CO)C(O)C2O)n1 (configuration not stated) :: inactive
2) CC1=CCC(C(C)(C)O)CC1 (configuration not stated) :: inactive
3) CC(C)=O :: inactive
4) CC1=C(/C=C/C(C)=C/C=C/C(C)=C/CO)C(C)(C)CCC1 :: inactive
5) CC(=O)Oc1c(C)cc(OCC(O)CNC(C)C)c(C)c1C (configuration not stated) :: inactive

Query: Lab note: record Potency of CCN(CC)Cc1cc(Nc2ccnc3cc(Cl)ccc23)ccc1O tested on CP266.
Result: 102 nM (active)

Query: Jot down Potency (CP266) of O=C1C(=O)c2ncccc2-c2cccnc21 .
Result: 849 nM (active)

----------
Test system: Tov-21-G
Test: Primary qHTS to identify gynecologic anti-cancer compounds using libraries of approved drugs and bioactive compounds (AID 1345084); further: on the % scale 0 is the no-effect control and ±100 the full control effect; nearly all actives have a fitted effect of over 55% in size
Settings: Gynecologic cancer cell panel viability, ATPlite luminescence, 48 h; series mostly up to 57.5 µM
Inconclusive results are not listed. Active and inactive are the calls of the source. Calls come from the whole dose curve; as a rule, active = well fitted cell-killing curve with a large enough effect; inconclusive = small, poorly fitted or top-dose-only effect, or effect the other way; inactive = flat fitted curve, though single readings scatter.
OBSERVATION TYPE: activity change, negative = cytotoxicity

1) COC12CC3C(C(C)C1=CC(=O)O2)C(O)C(OC(C)=O)C1C(C)(C)C(OC(C)=O)CCC31C (centres undefined) :: inactive
2) O=C(/C=C/c1ccc(O)cc1)OCC1=CC2OC(=O)C3=CO[C@@H](O[C@@H]4O[C@H](CO)[C@@H](O)[C@H](O)[C@H]4O)[C@H]1[C@@H]32 (some centres undefined) :: inactive
3) CCC[C@@H]1C[C@@H](C(=O)N[C@@H]([C@H]2O[C@H](SC)[C@H](O)[C@@H](O)[C@@H]2O)[C@@H](C)O)N(C)C1 :: inactive
4) C[C@@H]1O[C@@H](O[C@H]2[C@H](O[C@H]3CC[C@@]4(C)C(CC[C@]5(C)C4CC=C4[C@@H]6CC(C)(C)CC[C@]6(C(=O)O)CC[C@]45C)[C@]3(C)CO)OC[C@H](O)[C@@H]2O)[C@H](O)[C@H](O[C@@H]2OC[C@@H](O)[C@H](O)[C@H]2O)[C@H]1O (some centres undefined) :: -4.57% [at 11.6 µM] (inactive)

----------
System: JEG-3
Assay: Primary qHTS to identify gynecologic anti-cancer compounds using libraries of approved drugs and bioactive compounds (AID 1345084); further: on the % scale 0 is the no-effect control and ±100 the full control effect; nearly all actives have a fitted effect of over 55% in size
Settings: Gynecologic cancer cell panel viability, ATPlite luminescence, 48 h; series mostly up to 57.5 µM
Records with an inconclusive call do not appear. Active and inactive are the calls of the source. The call rests on the fitted dose curve; in most records, active means well fitted cell-killing curve with a large enough effect; inconclusive means small, poorly fitted or top-dose-only effect, or effect the other way; inactive means flat fitted curve, though single readings scatter.
OBSERVATION TYPE: activity change, negative = cytotoxicity

Solved entries:
1) C=CCc1ccc(O[C@@H]2O[C@H](CO[C@@H]3O[C@@H](C)[C@H](O)[C@@H](O)[C@H]3O)[C@@H](O)[C@H](O)[C@H]2O)cc1 :: inactive
2) COC1C=C([C@@H]2CC=C3[C@@]4(C)C(CC[C@]32C)[C@@]2(C)C=CC(=O)C(C)(C)C2C[C@H]4OC(C)=O)C(=O)O1 (stereo not given in full) :: inactive
3) COc1cc(N2CCC(O)CC2)ccc1Nc1cc(Nc2ccccc2S(=O)(=O)C(C)C)c2cc[nH]c2n1 :: inactive
4) C[C@@H]1O[C@@H](O[C@@H]2[C@@H](O)[C@H](O[C@@H]3[C@@H](O)[C@@H](O)[C@H](O[C@H]4[C@H](OC(=O)[C@]56CCC(C)(C)C[C@H]5C5=CCC7[C@@]8(C)C[C@H](O)[C@H](O[C@@H]9O[C@@H](C)[C@H](O)[C@@H](O)[C@H]9O)[C@@](C)(CO)C8CC[C@@]7(C)[C@]5(C)C[C@H]6O)O[C@H](C)[C@H](O)[C@@H]4O)O[C@H]3C)OC[C@H]2O)[C@H](O)[C@H](O)[C@H]1O (stereo not given in full) :: 1.34% [at 6.55 µM] (inactive)

Attention now shifts to the item below.
Query: Using the record for O=c1c2cccnc2n(-c2cccc([N+](=O)[O-])c2)c(=O)n1Cc1ccncc1 , state its measured activity change, negative = cytotoxicity.
Result: inactive

----------
Experiment: qHTS assay for cell viability of the p53RE-bla HCT-116 cell line (AID 743292); further: on the % scale 0 is the no-effect control and ±100 the full control effect; nearly all actives have a fitted effect of over 55% in size
Conditions: p53RE-bla HCT-116 viability, ATP luminescence, 16 h; series mostly up to 95 µM
Results filed as inconclusive are left out. Calls of active or inactive are those of the source. Calls come from the whole dose curve; as a rule, active = well fitted cell-killing curve with a large enough effect; inconclusive = small, poorly fitted or top-dose-only effect, or effect the other way; inactive = flat fitted curve, though single readings scatter.
OBSERVATION TYPE: outcome

1. CC1=CCC(C(C)(C)O)CC1 (stereo unspecified) :: inactive
2. CC(O)CO (stereo unspecified) :: inactive
3. O=C(O)CCC(=O)C(=O)O :: inactive
4. CCCCC/C=C\C/C=C\CCCCCCCC(=O)O :: inactive
5. CCCCCCCC/C=C\CCCCCCCC(=O)O :: inactive

Note: attention shifts to another entry.
Query: Item C[C@H]1C[C@H]2[C@@H]3CCC4=CC(=O)C=C[C@]4(C)[C@@]3(F)[C@@H](O)C[C@]2(C)[C@@]1(O)C(=O)CO : provide outcome
Result: inactive

----------
Experiment: Primary qHTS for inhibitors of nuclear receptor binding SET domain protein 2 (NSD2) in an isogenic RCH-ACV NSD2 p.E1099K mutant (9B) (AID 1645876); further: on the % scale 0 is the no-effect control and ±100 the full control effect; nearly all actives have a fitted effect of over 70% in size
Conditions: RCH-ACV (leukaemia line) NSD2 E1099K (9B) viability, CellTiter-Glo, 72 h; series mostly up to 44.9 µM
Records with an inconclusive call do not appear. Active and inactive are the calls of the source. Calls come from the whole dose curve; as a rule, active = well fitted inhibition curve with a large enough effect; inconclusive = small, poorly fitted or top-dose-only effect; inactive = flat fitted curve, though single readings scatter.
OBSERVATION TYPE: activity change, negative = viability loss

1) CC(C)C1=CC2=CCC3[C@](C)(CCC[C@@]3(C)C(=O)O)C2CC1=O (stereo not given in full) :: inactive
2) COCCCNCC1COc2ccccc2O1 (stereo not given) :: inactive
3) C=CCc1ccc(O[C@@H]2O[C@H](CO)[C@@H](O)[C@H](O)[C@H]2O)c(OC)c1 :: inactive
4) CC/C=C/CC1=C(CCCCCCCC(=O)O)CCC1=O :: inactive

Consider now this further compound.
Query: Given CC1OC(OC2C(C)OC(OC3C(OC(=O)/C=C/c4ccc(O)cc4)C(CO)OC(OC4(COC(=O)/C=C/c5ccc(O)cc5)OC(CO)C(O)C4O)C3OC3OCC(O)(CO)C3O)C(O)C2O)C(O)C(O)C1O (stereo not given) , respond with its activity change, negative = viability loss.
Result: -6.92% [at 9.23 µM] (inactive)

----------
Tested on: 3D7
Experiment: qHTS profiling for inhibitors of Plasmodium falciparum proliferation (AID 504749); further: nearly all actives have a fitted effect of over 60% in size
Conditions: P. falciparum in erythrocytes, SYBR Green DNA, 72 h; series mostly up to 28.7 µM
Description: NIH National Institute of Allergy and Infectious Diseases [NIAID] NIH Chemical Genomics Center [NCGC] […] Because mature erythrocytes lack DNA, only Plasmodium-derived DNA is detected. NCGC Assay Protocol Summary: The SYBR Green viability assay was adapted from a method described previously (Plouffe et al., 2008). […] The following morning, fluorescence intensity at 485(14) nm excitation and 535(25) nm emission wavelengths was measured on an EnVision (Perkin Elmer) plate reader. […]
Results filed as inconclusive are left out. Calls of active or inactive are those of the source. Calls follow the shape of the dose curve; as a rule, active = well fitted inhibition curve with a large enough effect; inconclusive = small, poorly fitted or top-dose-only effect; inactive = flat fitted curve, though single readings scatter.
Can you answer with just one of these options? 1.0 (active), 0.0 (inactive)

Take a look at these entries with their results.
1. O=S(=O)(O)c1ccc2c(N=Nc3ccc(S(=O)(=O)O)c4ccccc34)c(O)c(S(=O)(=O)O)cc2c1 :: 0.0
2. CCCCC/C=C\C/C=C\CCCCCCCC(=O)O :: 0.0
3. O=C(O)c1cc(O)c2c(c1)[O][Bi][O]2 :: 0.0
4. O=C(O)CCC(=O)C(=O)O :: 0.0
5. CCCCCCCCCCCCCC[n+]1ccc(C)cc1 :: 1.0
6. COC(=O)CCC(=O)CN :: 0.0
7. C[C@]12CCC(=O)C=C1CC[C@@H]1[C@@H]2[C@@H](O)C[C@@]2(C)[C@H]1CC[C@]2(O)C(=O)COP(=O)(O)O :: 0.0
8. CC(=O)Oc1c(C)cc(OCC(O)CNC(C)C)c(C)c1C (stereo unspecified) :: 0.0
9. CC(C)=O :: 0.0
10. CCCC(=O)Nc1ncnc2c1ncn2C1OC2COP(=O)(O)OC2C1OC(=O)CCC (stereo unspecified) :: 0.0

Query: Recorded call for O=C(O)c1cc(=O)c2c3nc4ccccc4oc-3cc(=O)c2[nH]1 ?
Result: 1.0
